experiment: in vitro
studyConditions: Mesocricetus auratus (hamster)
The following compounds are shown together with reported CC50 values.

Return value of CC50 for input Cc1cc2nn(-c3ccc(NC(=O)NC4CCCCC4)cc3)nc2cc1C , no commentary.
> 100 µM

Kindly indicate its recorded CC50. Item: CCNC(=O)Nc1ccc(-n2nc3cc(C)c(C)cc3n2)cc1
> 100 µM

Give the measured CC50 for CC(=O)Nc1ccc(-n2nnc3cc(Cl)c(Cl)cc32)cc1
53 µM

###

Tested on: Hantaan (HTNV) (strain 76–118)
experiment: microbe, parasite or virus in culture
Assay type: cell-based, Hantaan virus
studyConditions: Orthohantavirus hantanense, Vero C1008, 168 h, read-out: HTNV EC50
The entries below are paired with their reported EC50.

Report EC50, nothing else, for this compound: COc1cc(C(=O)Nc2ccc(-n3nc4cc(C)c(C)cc4n3)cc2)cc(OC)c1OC [4j]
> 30 µM

Give the reported value of EC50 for this record: CCC(=O)Nc1ccc(-n2nc3cc(Cl)c(Cl)cc3n2)cc1 [2c]
> 30 µM

Write down EC50 measured for item CCC(=O)Nc1ccc(-n2nnc3cc(Cl)c(Cl)cc32)cc1 [1c]
> 20 µM

Give recorded EC50. CC(=O)Nc1ccc(-n2nnc3cc(Cl)c(Cl)cc32)cc1 [1b]
> 20 µM

Consider the compound COc1cc(C(=O)Nc2ccc(-n3nc4cc(Cl)c(Cl)cc4n3)cc2)cc(OC)c1OC [2j] . State its measured EC50.
≤ 5 µM

Others:
Name the recorded EC50 of the item Cc1cc2nn(-c3ccc(NC(=O)NC4CCCCC4)cc3)nc2cc1C [4n] in your answer.
> 30 µM

Hello, please tell me recorded EC50 for this one: CCCCNC(=O)Nc1ccc(-n2nc3cc(C)c(C)cc3n2)cc1 [4m]
> 30 µM

Specify EC50 for COc1cc(C(=O)Nc2ccc(-n3nnc4cc(Cl)c(Cl)cc43)cc2)cc(OC)c1OC [1j] and stop.
> 30 µM

Give the value of EC50 reported for the following: CCC(=O)N(C(=O)CC)c1ccc(-n2nc3cc(Cl)c(Cl)cc3n2)cc1 [2d]
> 30 µM

Return EC50 for the following compound: CCCCNC(=O)Nc1ccc(-n2nc3ccccc3n2)cc1 [3m]
> 30 µM

Return value of EC50 for input Cc1ccc(C(=O)Nc2ccc(-n3nc4cc(C)c(C)cc4n3)cc2)cc1 [4f] , no commentary.
> 30 µM

Look up and state reported EC50 for CC(=O)Nc1ccc(-n2nc3cc(Cl)c(Cl)cc3n2)cc1 [2b]
> 30 µM

Assign EC50 to the following record: CCCCNC(=O)Nc1ccc(-n2nc3cc(Cl)c(Cl)cc3n2)cc1 [2m]
> 30 µM

Fill in reported EC50 for this entry: O=C(Nc1ccc(-n2nc3cc(Cl)c(Cl)cc3n2)cc1)c1ccc(Cl)cc1 [2g]
> 30 µM

Let me know recorded EC50 for CCNC(=O)Nc1ccc(-n2nc3ccccc3n2)cc1 [3k] , thanks.
> 30 µM

###

experiment: in vitro
studyConditions: human
CC50 overview

Here are 6 molecules together with their reported answers.
Specify reported CC50 for the molecule shown: Nc1ccc(-n2nnc3cc(Cl)c(Cl)cc32)cc1
≥ 100 µM

State, in one line, measured CC50 of O=C(Nc1ccc(-n2nc3ccccc3n2)cc1)NC1CCCCC1
> 100 µM

For the molecule CCNC(=O)Nc1ccc(-n2nc3cc(C)c(C)cc3n2)cc1 , give its measured CC50 value.
> 100 µM

# return recorded CC50 for entry COc1ccc(C(=O)Nc2ccc(-n3nc4cc(Cl)c(Cl)cc4n3)cc2)cc1
≥ 100 µM

Find the measured CC50 of COc1cc(C(=O)Nc2ccc(-n3nc4ccccc4n3)cc2)cc(OC)c1OC and report it.
> 100 µM

Kindly indicate its recorded CC50. Item: CCCCNC(=O)Nc1ccc(-n2nc3ccccc3n2)cc1
> 100 µM

Continuing:
Provide CC50 value for the following molecule: CCCNC(=O)Nc1ccc(-n2nc3cc(C)c(C)cc3n2)cc1
> 100 µM

###

experiment: in vitro
studyConditions: African green monkey
readoutKind: CC50

# return recorded CC50 for entry Cc1ccc(C(=O)Nc2ccc(-n3nc4cc(C)c(C)cc4n3)cc2)cc1
> 30 µM

Fill in reported CC50 for this entry: CCCC(=O)N(C(=O)CCC)c1ccc(-n2nc3cc(Cl)c(Cl)cc3n2)cc1
> 30 µM

Name the recorded CC50 of the molecule listed here: COc1cc(C(=O)Nc2ccc(-n3nc4cc(C)c(C)cc4n3)cc2)cc(OC)c1OC
> 30 µM

Dear colleague, please send me the reported CC50 for CCNC(=O)Nc1ccc(-n2nc3cc(Cl)c(Cl)cc3n2)cc1 when you can.
> 30 µM

Give the reported CC50 for this molecule. CCCNC(=O)Nc1ccc(-n2nc3cc(C)c(C)cc3n2)cc1
> 30 µM

Others:
Report measured CC50; entry is Cc1ccc(C(=O)Nc2ccc(-n3nc4ccccc4n3)cc2)cc1
> 30 µM

# return recorded CC50 for entry CCCCNC(=O)Nc1ccc(-n2nc3cc(C)c(C)cc3n2)cc1
> 30 µM

###

CC50 for assorted molecules
experiment: in vitro
studyConditions: African green monkey
Use µM as the unit, but write only the number.

In one line, give reported CC50 of the entry CCC(=O)Nc1ccc(-n2nnc3cc(Cl)c(Cl)cc32)cc1 [1c] .
20

Switching to the query record.
Tell me CC50 reported for CCCC(=O)N(C(=O)CCC)c1ccc(-n2nnc3cc(Cl)c(Cl)cc32)cc1 [1e]
25

###

experiment: in vitro
studyConditions: African green monkey
This section presents compounds with their documented CC50 values.

See these solved cases before continuing.
Read off the recorded CC50 for COc1ccc(C(=O)Nc2ccc(-n3nc4cc(Cl)c(Cl)cc4n3)cc2)cc1 [2i]
> 30 µM

Consider the compound O=C(Nc1ccc(-n2nc3ccccc3n2)cc1)NC1CCCCC1 [3n] . State its measured CC50.
> 30 µM

For the compound O=C(Nc1ccc(-n2nc3cc(Cl)c(Cl)cc3n2)cc1)c1ccc([N+](=O)[O-])cc1 [2h] , give its measured CC50 value.
> 30 µM

Provide CC50 value for the following compound: COc1cc(C(=O)Nc2ccc(-n3nc4ccccc4n3)cc2)cc(OC)c1OC [3j]
> 30 µM

Identify measured CC50 associated with NC(=O)c1ncn([C@@H]2O[C@H](CO)[C@@H](O)[C@H]2O)n1 [RBV, Ribavirin, reference compound]
> 100 µM

From here, focus on the item given below.
Kindly indicate its recorded CC50. Item: CCCNC(=O)Nc1ccc(-n2nc3cc(Cl)c(Cl)cc3n2)cc1 [2l]
30 µM

###

experiment: in vitro
studyConditions: Cercopithecus aethiops (monkey)
Consider the following compounds and their measured CC50 readings.

Consider the worked cases shown below.
Identify measured CC50 associated with CCNC(=O)Nc1ccc(-n2nc3ccccc3n2)cc1 [3k]
> 100 µM

Answer with reported CC50 of CCNC(=O)Nc1ccc(-n2nc3cc(C)c(C)cc3n2)cc1 [4k]
> 100 µM

Let us move to another entry and its CC50.
Quickly give me recorded CC50 for COc1cc(C(=O)Nc2ccc(-n3nc4cc(C)c(C)cc4n3)cc2)cc(OC)c1OC [4j]
> 100 µM

###

experiment: in vitro
studyConditions: Cercopithecus aethiops (monkey)
Measured CC50 accompanies every entry in the list below.
Express it in µM; write the number only.

Recall and state the measured CC50 for Cc1cc2nn(-c3ccc(NC(=O)NC4CCCCC4)cc3)nc2cc1C [4n] .
95

Here is the next item to consider.
// Input: CCCCNC(=O)Nc1ccc(-n2nc3cc(Cl)c(Cl)cc3n2)cc1 [2m] . Output its CC50 only.
95

###

In this section we review reported Selectivity Index values for a set of compounds.
Test system: Hantaan (HTNV) (strain 76–118)
experiment: microbe, parasite or virus in culture
Assay type: cell-based, Hantaan virus

State its Selectivity Index for this compound: COc1cc(C(=O)Nc2ccc(-n3nc4cc(Cl)c(Cl)cc4n3)cc2)cc(OC)c1OC
> 7.5

Please report the measured Selectivity Index for NC(=O)c1ncn([C@@H]2O[C@H](CO)[C@@H](O)[C@H]2O)n1 [RBV, Ribavirin, reference compound]
> 2

Identify measured Selectivity Index corresponding to CCCNC(=O)Nc1ccc(-n2nc3cc(Cl)c(Cl)cc3n2)cc1
6

Please give the documented Selectivity Index of O=C(Nc1ccc(-n2nc3cc(Cl)c(Cl)cc3n2)cc1)NC1CCCCC1
> 7.5

###

In this section, each of the compounds is paired with its reported melting point.

Read off the recorded melting point for COc1cc(C(=O)Nc2ccc(-n3nc4ccccc4n3)cc2)cc(OC)c1OC [3j]
227 to 229 °C

Read off the recorded melting point for Cc1ccc(C(=O)Nc2ccc(-n3nc4cc(C)c(C)cc4n3)cc2)cc1 [4f]
295 to 296 °C

Read the entry COc1cc(C(=O)Nc2ccc(-n3nc4cc(C)c(C)cc4n3)cc2)cc(OC)c1OC [4j] and write its reported melting point.
272 to 273 °C

Now take the following compound into account.
Provide one value: measured melting point of Cc1ccc(C(=O)Nc2ccc(-n3nc4ccccc4n3)cc2)cc1 [3f]
266 to 268 °C
